# Tested On: T1, cynomolgus/rhesus macaque CD47 protein, His Tag (ACRObiosystems, Cat. No. CD7-C52H1) (cynomolgus monkey, UniProt A0A2K5X523 19-139)
# T1 construct: Bought protein; also called Cynomolgus monkey CD47 protein; not shown: His tag
# Test Protocol: Biacore SPR, antibody captured on CM5 chip, CD47-His protein, 25 C
Lab note: cut-off is 2 nM. Strictly less in Kd is 1. Exactly 2 nM or more is -1.

Would you please look over these solved cases?
>  <Binder>
hz3F10-6.1 (antibody, human IgG4 S228P, kappa, V domains shown, Humanized 3F10, full-length heavy and light chains, made in CHO cells) VH: QVQLVQSGAEVKKPGSSVKVSCKASGYTFSRYWIEWVRQAPGQGLEWMGEFIPGSDTTNYAQKFQGRVTITADISTSTAYMELSSLRSEDTAVYYCARGGLRRMDYWGQGTLVTVSS VL: DIQMTQSPSSLSASVGDRVTITCRASSSVSSTYLHWYQQKPGKAPKLWIYTTSTLASGVPSRFSGSGSGTSYTLTISSLQPEDFATYYCQQFSESTWTFGQGTKLEIKR

>  <Group>
-1

$$$$
>  <Binder>
hz3F10-4.1 (antibody, human IgG4 S228P, kappa, V domains shown, Humanized 3F10, full-length heavy and light chains, made in CHO cells) VH: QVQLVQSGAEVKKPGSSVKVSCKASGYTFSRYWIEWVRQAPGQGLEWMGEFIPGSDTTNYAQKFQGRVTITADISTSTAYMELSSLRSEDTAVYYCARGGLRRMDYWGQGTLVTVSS VL: DIQMTQSPSSLSASVGDRVTITCRASSSVSSTYLHWYQQKPGKAPKLLIYTTSTLASGVPSRFSGSGSGTSYTLTISSLQPEDFATYYCQQFSESTWTFGQGTKLEIKR

>  <Group>
1

$$$$
>  <Binder>
Xi3F10 (antibody, human IgG4 S228P, kappa, V domains shown, Chimeric: mouse VH on human IgG4 (S228P, EU) constant region, mouse VL on human kappa constant region; made in CHO cells; also called chimeric version of 3F10) VH: EVQLQQSVAELMKPGASVKIYCKATGYTFSRYWIEWVKQRPGHGLEWIGEFIPGSDTTNFNEKFKGKATFTAEISSNTAYMQLSSLTSEDSAVYFCARGGLRRMDYWGQGTSVTVSS VL: DIVMTQTPAIMSASPGEKVTMTCRASSSVSSTYLHWYQQKSGASPKLWIYTTSTLASGVPARFSGSGSGTSYSLTISSVEAEDAATYYCQQFSDSTWTFGGGTKLEIKR

>  <Group>
1

$$$$
>  <Binder>
Xi16E5 (antibody, human IgG4 S228P, kappa, V domains shown, Chimeric: mouse VH on human IgG4 (S228P, EU) constant region, mouse VL on human kappa constant region; made in CHO cells; also called chimeric version of 16E5) VH: EVQLQQSGPELKKPGETVKISCKASGYTFTNYGMNWVKQVPGKGLKWMGWINTNTGEPTYAEEFKGRFAFSLETSARTAFLQINNLKNEDTATYFCTRFSHLRGPMDYWGQGASVTVSS VL: DAVMTQTPLSLPVSLGDQASISCRSSQSLVHSNGYTYLHWYLQKPGQSPKLLIYKVSNRFSGVPDRFSGSGSGTDFTLKISRLEAEDLGVYFCSQSTHVPPTFGGGTKLEIKR

>  <Group>
-1

$$$$
>  <Binder>
hz3F10-2.2 (antibody, human IgG4 S228P, kappa, V domains shown, Humanized 3F10, full-length heavy and light chains, made in CHO cells) VH: QVQLVQSGAEVKKPGSSVKVSCKASGYTFSRYWIEWVRQAPGQGLEWMGEFIPGSDTTNYAQKFQGRVTITAEISTNTAYMELSSLRSEDTAVYYCARGGLRRMDYWGQGTLVTVSS VL: DIQMTQSPSSLSASVGDRVTITCRASSSVSSTYLHWYQQKPGKAPKLLIYTTSTLASGVPSRFSGSGSGTDFTLTISSLQPEDFATYYCQQFSESTWTFGQGTKLEIKR

>  <Group>
1

$$$$
>  <Binder>
hz3F10-4.2 (antibody, human IgG4 S228P, kappa, V domains shown, Humanized 3F10, full-length heavy and light chains, made in CHO cells) VH: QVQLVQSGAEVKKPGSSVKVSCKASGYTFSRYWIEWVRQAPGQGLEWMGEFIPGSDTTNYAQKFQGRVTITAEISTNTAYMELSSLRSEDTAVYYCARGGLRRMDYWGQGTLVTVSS VL: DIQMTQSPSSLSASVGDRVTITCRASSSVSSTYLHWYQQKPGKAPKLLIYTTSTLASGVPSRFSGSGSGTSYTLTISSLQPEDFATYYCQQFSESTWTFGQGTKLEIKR

>  <Group>
1

$$$$
>  <Binder>
Xi2H8 (antibody, human IgG4 S228P, kappa, V domains shown, Chimeric: mouse VH on human IgG4 (S228P, EU) constant region, mouse VL on human kappa constant region; made in CHO cells; also called chimeric version of 2H8) VH: QVQLKESGPGLVAPSQSLSITCTVSGFSLTNYGVHWVRQPPGKGLEWLGIIWAGGSTNYNSALMSRLSISKDNSKSQVFLKMNSLQTDDTAMYYCARDDYASMDYWGQGTSVTVSS VL: DAFMTQTPLSLPVSLGDQASISCRSSQSLVHSNGNTYLHWYLQKPGQSPKLLIYKVSNRFSGVPDRFSGSGSGTDFTLKISRVEAEDLGVYFCSQSTHVPYTLGGGTKLEIKR

>  <Group>
1

$$$$

Consider the record given below.
Could you please tell me whether Kd recorded for hz3F10-1.1 (antibody, human IgG4 S228P, kappa, V domains shown, Humanized 3F10, full-length heavy and light chains, made in CHO cells) VH: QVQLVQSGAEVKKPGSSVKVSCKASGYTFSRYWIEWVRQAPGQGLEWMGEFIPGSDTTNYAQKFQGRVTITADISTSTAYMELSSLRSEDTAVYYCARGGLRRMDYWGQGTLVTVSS VL: DIQMTQSPSSLSASVGDRVTITCRASSSVSSTYLHWYQQKPGKAPKLLIYTTSTLASGVPSRFSGSGSGTDFTLTISSLQPEDFATYYCQQFSDSTWTFGQGTKLEIKR is less than 2 nM?
1

These entries and their values trace back to patent US20240269278A1.
